- subject_of_test: E. coli LpxC (Escherichia coli (strain K12))
- protocol_details: in vitro substrate deacetylation assay for inhibition of LpxC (ADDA analysis)
- conditions_used: 5 nM E. coli LpxC, 2.5 μM substrate, 1 hour at room temperature
endpoint: IC50

O=C(O)CN1C[C@H](NC(=O)[C@@H]2C[C@H](F)CN2)C[C@@H]1C(=O)NCc1ccc(C#CC#CC2CC2)cc1 | < 500 nM
COC(=O)N1C[C@H](NC(=O)[C@@H]2C[C@H](F)CN2)C[C@@H]1C(=O)NCc1ccc(C#CC#CC2CC2)cc1 | 500 to 2500 nM

Now consider a different compound.
## Task Return IC50 (reported value) for this compound: CC(C)C(=O)N1C[C@H](NC(=O)[C@@H]2C[C@@H](F)CN2)C[C@@H]1C(=O)NCc1ccc(C#CC#CC2CC2)cc1
## Result 2500 to 10000 nM

---

- subject_of_test: P. aeruginosa LpxC (Pseudomonas aeruginosa (strain ATCC 15692 / DSM 22644 / CIP 104116 / JCM 14847 / LMG 12228 / 1C / PRS 101 / PAO1))
- protocol_details: biochemical
- conditions_used: 5 nM P. aeruginosa LpxC, 2.5 μM substrate, 1 hour at room temperature
endpoint: IC50

Reference set (5 entries):
CC(C)C(=O)N1C[C@H](NC(=O)[C@@H]2C[C@@H](O)CN2)C[C@@H]1C(=O)NCc1ccc(C#Cc2ccc(CN3CCOCC3)cc2)cc1 | 50 to 100 nM
CNCCC(=O)N1C[C@H](NC(=O)[C@@H]2C[C@H](F)CN2)C[C@@H]1C(=O)NCc1ccc(C#CC#CC2CC2)cc1 | 50 to 100 nM
CC(C)C(=O)N1C[C@H](NC(=O)[C@H]2NCC[C@H]2O)C[C@@H]1C(=O)NCc1ccc(C#Cc2ccc(CN3CCOCC3)cc2)cc1 | 100 to 1000 nM
O=C(N[C@@H]1C[C@H](C(=O)NCc2ccc(C#CC#CC3CC3)cc2)N(CCO)C1)[C@@H]1C[C@H](F)CN1 | 100 to 1000 nM
NC1CN(C(=O)N2C[C@H](NC(=O)[C@@H]3C[C@H](F)CN3)C[C@@H]2C(=O)NCc2ccc(C#CC#CC3CC3)cc2)C1 | < 50 nM

Now consider a different compound.
## Task Return IC50 (reported value) for this compound: COCCN(C(=O)[C@@H]1C[C@H](F)CN1)[C@@H]1C[C@H](C(=O)NCc2ccc(C#Cc3ccc(CN4CCOCC4)cc3)cc2)N(C(=O)C2CC2)C1
## Result > 1000 nM

---

In this section we review reported pIC50 values for a set of molecules.
- subject_of_test: P. aeruginosa LpxC (Pseudomonas aeruginosa (strain ATCC 15692 / DSM 22644 / CIP 104116 / JCM 14847 / LMG 12228 / 1C / PRS 101 / PAO1))
- protocol_details: biochemical
- conditions_used: 5 nM P. aeruginosa LpxC, 2.5 μM substrate, 1 hour at room temperature
pIC50: −log10 of the molar value.

CC(C)C(=O)N1C[C@H](NC(=O)[C@@H]2CC(F)(F)CN2)C[C@@H]1C(=O)NCc1ccc(C#Cc2ccccc2)cc1 [Example 9C] | 6.00 to 7.00
O=C(O)CCN1C[C@H](NC(=O)[C@@H]2C[C@H](F)CN2)C[C@@H]1C(=O)NCc1ccc(C#CC#CC2CC2)cc1 [Example 9AO] | 6.00 to 7.00
CC(C)C(=O)N1C[C@H](NC(=O)[C@@H]2C[C@H](F)CN2)C[C@@H]1C(=O)NCc1ccc(C#CC2CC2)cc1 [Example 9BG] | 6.00 to 7.00
CN(C)C(=O)N1C[C@H](NC(=O)[C@@H]2C[C@H](F)CN2)C[C@@H]1C(=O)NCc1ccc(C#Cc2ccc(CN3CCOCC3)cc2)cc1 [Example 9AH] | > 7.30

Now consider a different molecule.
## Task Return pIC50 (reported value) for this molecule: NCCCC(=O)N1C[C@H](NC(=O)[C@@H]2C[C@H](F)CN2)C[C@@H]1C(=O)NCc1ccc(C#CC#CC2CC2)cc1 [Example 9O]
## Result 7.00 to 7.30

---

- subject_of_test: E. coli LpxC (Escherichia coli (strain K12))
- protocol_details: in vitro substrate deacetylation assay for inhibition of LpxC (ADDA analysis)
- conditions_used: 5 nM E. coli LpxC, 2.5 μM substrate, 1 hour at room temperature
endpoint: IC50

O=C(NC[C@H]1C[C@@H](NC(=O)[C@@H]2C[C@H](F)CN2)CN1C(=O)C1CC1)c1ccc(C#Cc2ccc(CN3CCOCC3)cc2)cc1 [Example 9AS] | < 500 nM

## Task Return IC50 (reported value) for this compound: CC(C)C(=O)N1C[C@H](NC(=O)[C@H]2NCC[C@H]2O)C[C@@H]1C(=O)NCc1ccc(C#Cc2ccc(CN3CCOCC3)cc2)cc1 [Example 9V]
## Result 2500 to 10000 nM

## Task Return IC50 (reported value) for this compound: CC(C)C(=O)N1C[C@H](NC(=O)[C@@H]2C[C@H](O)CN2)C[C@@H]1C(=O)NCc1ccc(C#Cc2ccc(CN3CCOCC3)cc2)cc1 [Example 9T]
## Result 2500 to 10000 nM

## Task Return IC50 (reported value) for this compound: CC(C)C(=O)N1C[C@H](NC(=O)[C@@H]2C[C@H](C#N)CN2)C[C@@H]1C(=O)NCc1ccc(C#Cc2ccc(CN3CCOCC3)cc2)cc1 [Example 9AD]
## Result < 500 nM

## Task Return IC50 (reported value) for this compound: CC(C)C(=O)N1C[C@H](NC(=O)[C@@H]2C[C@H](F)CN2)C[C@@H]1C(=O)NCc1ccc(C#CC#Cc2ccccc2)cc1 [Example 9AT]
## Result 500 to 2500 nM

---

- subject_of_test: P. aeruginosa LpxC (Pseudomonas aeruginosa (strain ATCC 15692 / DSM 22644 / CIP 104116 / JCM 14847 / LMG 12228 / 1C / PRS 101 / PAO1), UniProt P47205)
- protocol_details: biochemical
- Assay type: biochemical
- conditions_used: 5 nM P. aeruginosa LpxC, 2.5 μM substrate, 1 hour at room temperature
endpoint: IC50

Reference set (5 entries):
O=C(O)CN1C[C@H](NC(=O)[C@@H]2C[C@H](F)CN2)C[C@@H]1C(=O)NCc1ccc(C#CC#CC2CC2)cc1 [Example 9AN] | 50 to 100 nM
N[C@H]1C[C@H](C(=O)N2C[C@H](NC(=O)[C@@H]3C[C@H](F)CN3)C[C@@H]2C(=O)NCc2ccc(C#CC#CC3CC3)cc2)C1 [Example 9AF] | 50 to 100 nM
O=C(N[C@@H]1C[C@H](C(=O)NCc2ccc(C#Cc3ccc(CN4CCOCC4)cc3)cc2)N(C(=O)OC2CC2)C1)[C@@H]1C[C@H](F)CN1 [Example 9AW] | < 50 nM
COC(=O)N1C[C@H](NC(=O)[C@@H]2C[C@H](F)CN2)C[C@@H]1C(=O)NCc1ccc(C#CC#CC2CC2)cc1 [Example 9R] | < 50 nM
NCCC(=O)N1C[C@H](NC(=O)[C@@H]2C[C@H](F)CN2)C[C@@H]1C(=O)NCc1ccc(C#CC#CC2CC2)cc1 [Example 9M] | 50 to 100 nM

Now consider a different compound.
## Task Return IC50 (reported value) for this compound: CC(C)C(=O)N1C[C@H](NC(=O)[C@@H]2C[C@@H](F)CN2)C[C@@H]1C(=O)NCc1ccc(C#Cc2ccc(CN3CCOCC3)cc2)cc1 [Example 9H]
## Result 100 to 1000 nM

---

- subject_of_test: E. coli LpxC (Escherichia coli (strain K12), UniProt P0A725)
- Sequence (P0A725 whole entry): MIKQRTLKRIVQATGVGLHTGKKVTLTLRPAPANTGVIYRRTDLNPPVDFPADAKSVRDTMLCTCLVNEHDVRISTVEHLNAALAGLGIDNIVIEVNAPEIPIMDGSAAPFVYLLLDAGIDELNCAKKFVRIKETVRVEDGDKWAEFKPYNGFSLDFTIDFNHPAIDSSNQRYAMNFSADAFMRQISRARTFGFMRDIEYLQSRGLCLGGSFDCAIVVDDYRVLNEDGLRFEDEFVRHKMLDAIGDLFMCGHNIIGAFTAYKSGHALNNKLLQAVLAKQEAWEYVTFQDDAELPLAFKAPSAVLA
- protocol_details: in vitro substrate deacetylation assay for inhibition of LpxC (ADDA analysis)
- Type: biochemical
- conditions_used: 5 nM E. coli LpxC, 2.5 μM substrate, 1 hour at room temperature
pIC50: −log10 of the molar value.
In this section we review reported pIC50 values for a set of compounds.

Reference set (3 entries):
O=C(O)CCN1C[C@H](NC(=O)[C@@H]2C[C@H](F)CN2)C[C@@H]1C(=O)NCc1ccc(C#CC#CC2CC2)cc1 | 5.00 to 5.60
O=C(N[C@@H]1C[C@H](C(=O)NCc2ccc(C#Cc3ccc(CN4CCOCC4)cc3)cc2)N(C(=O)OC2CC2)C1)[C@@H]1C[C@H](F)CN1 | > 6.30
N[C@H]1C[C@H](C(=O)N2C[C@H](NC(=O)[C@@H]3C[C@H](F)CN3)C[C@@H]2C(=O)NCc2ccc(C#CC#CC3CC3)cc2)C1 | 5.60 to 6.30

## Task Return pIC50 (reported value) for this compound: NCCC(=O)N1C[C@H](NC(=O)[C@@H]2C[C@H](F)CN2)C[C@@H]1C(=O)NCc1ccc(C#CC#CC2CC2)cc1
## Result 5.00 to 5.60

## Task Return pIC50 (reported value) for this compound: CS(=O)(=O)N1C[C@H](NC(=O)[C@@H]2C[C@H](F)CN2)C[C@@H]1C(=O)NCc1ccc(C#Cc2ccc(CN3CCOCC3)cc2)cc1
## Result > 6.30

## Task Return pIC50 (reported value) for this compound: O=C(N[C@@H]1C[C@H](C(=O)NCc2ccc(C#Cc3ccc(CN4CCOCC4)cc3)cc2)N(C(=O)C2CC2)C1)[C@@H]1C[C@H](F)CN1
## Result > 6.30

## Task Return pIC50 (reported value) for this compound: O=C(NC[C@H]1C[C@@H](NC(=O)[C@@H]2C[C@H](F)CN2)CN1C(=O)C1CC1)c1ccc(C#Cc2ccc(CN3CCOCC3)cc2)cc1Cl
## Result > 6.30
